Tested on: Escherichia coli BW25113
Experiment: plate-normalized OD600 growth (mean of duplicates) (OD600 (normalized)); higher = more growth (less inhibition)
Settings: temperature: 15°C; 48 h; 10 µM
Over roughly 1,600 compounds, “plate-normalized OD600 growth (mean of duplicates)” has its median near 0.31; the lowest 2% begin near 0.23. What follows is part of a selection rich in the lowest values, with near analogues and random picks from the rest.
Recorded plate-normalized OD600 growth values for a group of molecules are listed next.
Number, no unit, nothing else.

>>> print(df.to_string())
                              molecule           measured_target               observation_type  measured_result
0  COc1ccc(OC)c(Nc2nc(C)c(C(C)=O)s2)c1  Escherichia coli BW25113  plate-normalized OD600 growth            0.272

Inquiry: Retrieve plate-normalized OD600 growth measured for `Cc1nc(C)c(-c2cc(C)c3c(C)nc(C)nc3n2)c(N)n1` and print it.
Reply text: 0.252

Inquiry: Retrieve plate-normalized OD600 growth measured for `CCCCOc1ccc(CN2CCN(CCOCCO)CC2)cc1` and print it.
Reply text: 0.216

Inquiry: Retrieve plate-normalized OD600 growth measured for `O=C(O)CSc1ccc(Br)cc1` and print it.
Reply text: 0.222

Inquiry: Retrieve plate-normalized OD600 growth measured for `O=C(O)CSc1cccc(C(=O)Nc2ccc(Br)cc2)c1` and print it.
Reply text: 0.249

Inquiry: Retrieve plate-normalized OD600 growth measured for CCCCOc1ccc(C2(C)CC(=O)NC2=O)cc1 (stereo unspecified) and print it.
Reply text: 0.258

----------
Recorded plate-normalized OD600 growth values for a group of molecules are listed next.
Tested on: Escherichia coli BW25113
Assay: plate-normalized OD600 growth (mean of duplicates) (OD600 (normalized)); higher = more growth (less inhibition)
Conditions: temperature: 15°C; 48 h; 10 µM
In all, about 1,600 compounds were measured (“plate-normalized OD600 growth (mean of duplicates)”: median about 0.31, lowest 2% from about 0.23 on). Shown is part of a subset that was picked to be rich in the lowest values.
Number, no unit, nothing else.

Guide cases for plate-normalized OD600 growth, answers given:
>>> df
                                   molecule           measured_target  measured_result
0               COc1ccc(C)cc1NCc1ccc(SC)cc1  Escherichia coli BW25113            0.282
1  COc1cccc(N2CCN(C3C4CC5CC(C4)CC3C5)CC2)c1 (stereo not given)  Escherichia coli BW25113            0.291
2       O=C(c1cccnc1)N1CCN(C(=O)c2ccco2)CC1  Escherichia coli BW25113             0.24
3               CCN(C(=O)Cc1ccccc1)C1CCCCC1  Escherichia coli BW25113            0.221

// switching to the query molecule
Inquiry: Retrieve plate-normalized OD600 growth measured for `CC(C)NCC(=O)NC12CC3CC(CC(C3)C1)C2` and print it.
Reply text: 0.266

----------
System: Escherichia coli BW25113
Test: plate-normalized OD600 growth (mean of duplicates) (OD600 (normalized)); higher = more growth (less inhibition)
Conditions: temperature: 15°C; 48 h; 10 µM
Whole data set: some 1,600 compounds, median “plate-normalized OD600 growth (mean of duplicates)” near 0.31, cut for the lowest 2% near 0.23. For the sample, the lowest values were picked, then their nearest neighbours and some compounds at random.
OBSERVATION TYPE: plate-normalized OD600 growth
Number, no unit, nothing else.

In [3]: df
Out[3]:
                                   molecule           measured_target               observation_type  measured_result
0  CC1(C)CC(=O)C2=C(C1)Nc1ccccc1NC2c1ccc([N+](=O)[O-])s1 (stereo unspecified)  Escherichia coli BW25113  plate-normalized OD600 growth            0.231
1             Cc1nc(-c2ccccc2)cc(N2CCCC2)n1  Escherichia coli BW25113  plate-normalized OD600 growth            0.253
2  CCOc1ccc(NC(=O)CC2Nc3ccccc3NC2=O)cc1 (stereo unspecified)  Escherichia coli BW25113  plate-normalized OD600 growth            0.273

// switching to the query molecule
Inquiry: Retrieve plate-normalized OD600 growth measured for `O=C(c1ccc([N+](=O)[O-])o1)N1CCN(c2cccc(Cl)c2)CC1` and print it.
Reply text: 0.212
